test system: A549; test: Cytotoxicity against human A549 cells after 48 hrs by MTT assay; assay type: functional, cell-based; settings: A549, 48 h
// reported IC50 for each item listed
observable: IC50 (µM)

- molecule: "C/C=C(\\C)C(=O)O[C@@H]1C/C(C)=C/CC[C@@]2(C)O[C@@H]2[C@@H](OC(=O)C(C)C(C)OC(C)=O)[C@H]1C(C)C (some centres not stated) [TRIJUGIN I]"
  test-system: "A549"
  observable: "IC50"
  value-operator: ">"
  reported-measurement: 40
- molecule: "C[C@@H]1CC[C@]2(C(=O)O)CC[C@]3(C)C(=CC[C@@H]4[C@@]5(C)C(CO)=CC(C)(C)[C@@H]5CC[C@]43C)[C@@H]2[C@]1(C)O [HYPTASIENIC ACID]"
  test-system: "A549"
  observable: "IC50"
  value-operator: "="
  reported-measurement: 24.7
